- Target of assay: ErbB4 on neonatal rat cardiomyocytes (rat) (UniProt Q62956)
- Sequence (Q62956 26-1308): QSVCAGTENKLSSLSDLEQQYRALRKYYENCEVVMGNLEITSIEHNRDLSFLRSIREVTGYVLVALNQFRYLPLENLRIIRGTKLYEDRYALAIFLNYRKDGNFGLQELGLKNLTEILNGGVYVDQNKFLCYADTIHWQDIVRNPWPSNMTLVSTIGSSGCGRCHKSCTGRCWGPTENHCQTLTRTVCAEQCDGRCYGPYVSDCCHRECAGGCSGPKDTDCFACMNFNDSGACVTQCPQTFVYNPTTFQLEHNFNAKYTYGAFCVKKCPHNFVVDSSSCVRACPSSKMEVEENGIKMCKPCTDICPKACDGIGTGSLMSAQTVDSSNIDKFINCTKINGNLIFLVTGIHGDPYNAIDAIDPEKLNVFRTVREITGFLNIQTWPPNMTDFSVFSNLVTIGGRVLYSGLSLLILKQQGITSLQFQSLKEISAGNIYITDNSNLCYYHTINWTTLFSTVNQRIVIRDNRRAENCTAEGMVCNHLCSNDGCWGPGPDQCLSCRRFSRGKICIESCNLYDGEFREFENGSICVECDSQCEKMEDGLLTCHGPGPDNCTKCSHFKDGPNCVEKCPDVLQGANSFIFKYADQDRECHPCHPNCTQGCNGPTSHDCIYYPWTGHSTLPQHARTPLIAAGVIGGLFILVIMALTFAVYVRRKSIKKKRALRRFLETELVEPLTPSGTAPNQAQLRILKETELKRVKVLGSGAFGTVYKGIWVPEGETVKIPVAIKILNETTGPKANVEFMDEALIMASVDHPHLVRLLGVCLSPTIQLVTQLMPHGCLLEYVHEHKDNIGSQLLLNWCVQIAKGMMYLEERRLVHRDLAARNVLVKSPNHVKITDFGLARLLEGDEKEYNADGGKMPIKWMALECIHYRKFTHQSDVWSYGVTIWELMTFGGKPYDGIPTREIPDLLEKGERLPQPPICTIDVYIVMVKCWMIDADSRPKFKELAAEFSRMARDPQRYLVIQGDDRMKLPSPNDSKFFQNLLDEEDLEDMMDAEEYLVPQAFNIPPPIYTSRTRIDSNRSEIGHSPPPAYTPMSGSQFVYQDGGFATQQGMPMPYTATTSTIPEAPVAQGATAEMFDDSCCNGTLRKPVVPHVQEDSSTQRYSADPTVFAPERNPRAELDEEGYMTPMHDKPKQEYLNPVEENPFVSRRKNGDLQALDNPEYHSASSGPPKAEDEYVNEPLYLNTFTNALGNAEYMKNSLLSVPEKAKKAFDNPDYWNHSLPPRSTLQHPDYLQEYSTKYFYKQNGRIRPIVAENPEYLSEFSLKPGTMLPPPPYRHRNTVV
- Test protocol: cell-based or functional assay
Measured endpoint: Cardiomyocyte (CM) (ErbB4) Avg EC50 (nM)
# value in nM; strip the unit string

Task item: Cardiomyocyte (CM) (ErbB4) Avg EC50 for huNRG1(S177-Q237)(NRGE1F)::GG::huFcSEFL2 (Pb) (Fc fusion) SHLVKCAENDKSFCVNGGECYMVEGSSIPSRYLCKCPNEFTGDRCQNDFMASFYKAEELYQGGDKTHTCPPCPAPELLGGPSVFLFPPKPKDTLMISRTPEVTCVVVDVSHEDPEVKFNWYVDGVEVHNAKTKPCEEQYGSTYRCVSVLTVLHQDWLNGKEYKCKVSNKALPAPIEKTISKAKGQPREPQVYTLPPSREEMTKNQVSLTCLVKGFYPSDIAVEWESNGQPENNYKTTPPVLDSDGSFFLYSKLTVDKSRWQQGNVFSCSVMHEALHNHYTQKSLSLSPGK ?
Reply: 0.65
